Values compiled from patent US20040052750A1.

- Test system: fibroblasts derived from a human
- procedureDetails: Promoting collagen production in fibroblasts (3H-proline incorporation into collagenase-sensitive protein)
- Format: cell-based
- setupConditions: 10^-5 M; control = 100%
Counter-ions that a name gives are not always drawn.
attributeMeasured: Effect of promoting collagen production in fibroblasts (rate of collagen production)
Answer shape: numeric part, then the unit.

// below: answered compounds
[
  {
    "compound": "CCOC(=O)C1=C(COCCN)NC(C)=C(C(=O)OC)C1c1ccccc1Cl (stereo not drawn)",
    "reported": "355.26%"
  },
  {
    "compound": "O=C1NC(=O)C(c2ccccc2)(c2ccccc2)N1",
    "reported": "381.54%"
  },
  {
    "compound": "CCCC(CCC)C(=O)O",
    "reported": "370.21%"
  },
  {
    "compound": "COc1ccc(CCN(C)CCCC(C#N)(c2ccc(OC)c(OC)c2)C(C)C)cc1OC (stereo not drawn) [Verapamil HCl]",
    "reported": "355.12%"
  },
  {
    "compound": "COC(=O)C1=C(C)NC(C)=C(C(=O)OC)C1c1ccccc1[N+](=O)[O-]",
    "reported": "358.16%"
  }
]

From here, focus on the item given below.
Task: Please give measured Effect of promoting collagen production in fibroblasts (rate of collagen production) of the following entry: "COc1ccc([C@@H]2Sc3ccccc3N(CCN(C)C)C(=O)[C@@H]2OC(C)=O)cc1"
Result: 362.12%
